// data source = patent US20160362487A1

Biological target: T1, cynomolgus monkey IL-33 expressed with a C-terminal hexahistidine tag (cynomolgus monkey)
T1 construct: also called MfIL-33-6His; Mf-IL-33-6His
T1 chain: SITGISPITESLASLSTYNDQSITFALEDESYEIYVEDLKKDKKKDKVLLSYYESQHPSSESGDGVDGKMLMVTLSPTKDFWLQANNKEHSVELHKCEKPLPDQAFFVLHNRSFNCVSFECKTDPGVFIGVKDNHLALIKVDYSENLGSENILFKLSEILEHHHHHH
Assay: SPR 37C pH7.4, mAb captured
pKd by entry:
Remember, pKd is on a log scale: it is -log10 of the molar concentration.

BINDER: H4H9670P (antibody, V domains shown, Human IgG4 Fc (H4H)) VH: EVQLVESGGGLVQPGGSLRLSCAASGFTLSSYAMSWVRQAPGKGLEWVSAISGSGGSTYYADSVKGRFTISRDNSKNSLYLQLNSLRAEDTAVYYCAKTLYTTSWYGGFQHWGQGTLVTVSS VL: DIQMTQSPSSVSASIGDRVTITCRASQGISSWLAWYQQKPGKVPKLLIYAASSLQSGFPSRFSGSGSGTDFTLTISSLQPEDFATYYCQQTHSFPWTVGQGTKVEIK
EXPERIMENTAL RESULT: 8.16

Reported pKd, binder H4H9675P (antibody, human IgG4, V domains shown, Human IgG4 Fc (H4H)) VH: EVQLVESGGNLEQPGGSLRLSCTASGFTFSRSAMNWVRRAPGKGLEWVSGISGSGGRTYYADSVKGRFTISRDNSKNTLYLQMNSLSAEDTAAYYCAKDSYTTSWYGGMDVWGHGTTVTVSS VL: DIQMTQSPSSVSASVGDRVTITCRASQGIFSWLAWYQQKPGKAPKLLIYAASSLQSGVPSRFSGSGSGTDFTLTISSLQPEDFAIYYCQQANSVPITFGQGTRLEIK : ____
8.32

Reported pKd, binder H4H9663P (antibody, human IgG4, V domains shown, Human IgG4 Fc (H4H)) VH: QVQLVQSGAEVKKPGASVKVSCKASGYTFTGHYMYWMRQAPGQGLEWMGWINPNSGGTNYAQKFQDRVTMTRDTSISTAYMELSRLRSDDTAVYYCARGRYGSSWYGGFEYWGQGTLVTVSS VL: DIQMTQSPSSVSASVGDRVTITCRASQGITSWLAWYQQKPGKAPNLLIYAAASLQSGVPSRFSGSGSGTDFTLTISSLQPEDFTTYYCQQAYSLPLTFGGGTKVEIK : ____
8.65

Reported pKd, binder H4H9659P (antibody, human IgG4, V domains shown, Human IgG4 Fc (H4H)) VH: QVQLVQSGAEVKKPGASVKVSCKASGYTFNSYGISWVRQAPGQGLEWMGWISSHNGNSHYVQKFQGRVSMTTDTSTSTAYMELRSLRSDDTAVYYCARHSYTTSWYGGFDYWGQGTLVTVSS VL: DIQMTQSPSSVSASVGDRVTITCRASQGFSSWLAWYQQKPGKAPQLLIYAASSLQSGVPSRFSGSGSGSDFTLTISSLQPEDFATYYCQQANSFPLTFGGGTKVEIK : ____
8.51

Reported pKd, binder H4H9666P (antibody, human IgG4, V domains shown, Human IgG4 Fc (H4H)) VH: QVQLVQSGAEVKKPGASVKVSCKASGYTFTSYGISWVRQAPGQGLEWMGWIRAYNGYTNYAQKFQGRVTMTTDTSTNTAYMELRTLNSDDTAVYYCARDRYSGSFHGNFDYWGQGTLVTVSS VL: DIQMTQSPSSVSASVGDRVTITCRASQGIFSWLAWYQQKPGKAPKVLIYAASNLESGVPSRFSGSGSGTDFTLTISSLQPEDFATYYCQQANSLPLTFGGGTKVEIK : ____
7.49

Reported pKd, binder H4H9660P (antibody, human IgG4, V domains shown, Human IgG4 Fc (H4H)) VH: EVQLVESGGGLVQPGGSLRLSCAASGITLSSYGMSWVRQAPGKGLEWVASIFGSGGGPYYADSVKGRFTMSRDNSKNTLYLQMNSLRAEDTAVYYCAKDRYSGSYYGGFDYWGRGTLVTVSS VL: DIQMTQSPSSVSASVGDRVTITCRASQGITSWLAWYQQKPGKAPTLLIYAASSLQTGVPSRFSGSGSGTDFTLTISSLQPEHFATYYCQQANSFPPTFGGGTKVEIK : ____
8.19

Reported pKd, binder H1M9568N (antibody, mouse IgG1, V domains shown, Human variable domains, mouse IgG1 Fc (H1M)) VH: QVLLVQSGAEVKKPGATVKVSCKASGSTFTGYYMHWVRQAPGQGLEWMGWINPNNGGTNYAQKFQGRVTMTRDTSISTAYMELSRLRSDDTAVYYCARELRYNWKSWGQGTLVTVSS VL: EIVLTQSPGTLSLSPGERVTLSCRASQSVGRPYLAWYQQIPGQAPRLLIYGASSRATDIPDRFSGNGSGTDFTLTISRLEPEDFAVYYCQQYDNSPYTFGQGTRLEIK : ____
8.35
